target: HTH-type transcriptional regulator EthR (Mycobacterium smegmatis (strain ATCC 700084 / mc(2)155)) (UniProt A0R666); experiment: Binding affinity to Mycobacterium smegmatis mc2 155 EthR assessed as protein thermal unfolding at 20 uM by SYPRO Orange dye based thermal shift assay; settings: Mycolicibacterium smegmatis MC2 155
Sequence (A0R666 whole entry): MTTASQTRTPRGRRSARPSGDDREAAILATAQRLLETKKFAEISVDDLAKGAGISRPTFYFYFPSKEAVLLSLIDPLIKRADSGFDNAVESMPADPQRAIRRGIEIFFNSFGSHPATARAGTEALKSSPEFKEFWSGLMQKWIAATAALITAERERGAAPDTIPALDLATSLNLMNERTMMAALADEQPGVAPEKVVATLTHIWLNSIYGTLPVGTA
Assay Endpoint: ΔTm (°C)
Give bare numbers, in °C.

O=C(COc1cccc(Oc2ccccc2)c1)Nc1ccc(Cl)c(Cl)c1 | 8.9
O=C(COc1cccc(Oc2ccccc2)c1)Nc1ccc2c(c1)OCO2 | 8.2
COc1cccc(NC(=O)COc2ccc(C(F)(F)F)cc2)c1 | 5
O=C(COc1ccc(C(F)(F)F)cc1)Nc1ccc(Cl)c(Cl)c1 | 8.1

Give ΔTm for each of the items listed below.
1. O=C(COc1ccc(C(F)(F)F)cc1)Nc1ccc2c(c1)OCO2
2. Cc1ccc(-n2nc3ccc(NC(=O)COc4ccccc4C)cc3n2)cc1
3. COc1cccc(OCC(=O)Nc2ccc(-c3ccccc3)cc2)c1
4. COc1cccc(OCC(=O)Nc2ccc(Cl)cc2)c1
5. O=C(COc1ccc(-c2ccccc2)cc1)Nc1ccc2c(c1)OCO2
6. O=C(COc1ccc(Cl)cc1)Nc1ccc(Cl)c(Cl)c1
7. Cc1ccc2cc(NC(=O)COc3ccccc3F)ccc2n1

Marked response:
[6.2, 6.4, 7, 6.1, 7, 6.9, 5.1]

----------
target: HTH-type transcriptional regulator EthR (Mycobacterium smegmatis (strain ATCC 700084 / mc(2)155)) (UniProt A0R666); test: Binding affinity to Mycobacterium smegmatis mc2 155 EthR assessed as protein thermal unfolding at 20 uM by SYPRO Orange dye based thermal shift assay; settings: Mycolicibacterium smegmatis MC2 155
The source made the active and inactive calls. The rule behind the calls is not given here.
Hi! Could you answer with just one of these? active, inactive

Field: example entries. Status: answers known.
O=C(CCl)Nc1ccccc1-c1ccccc1 | inactive
CN(C(=O)CCl)c1ccccc1 | active
COc1ccc(NC(=O)CCl)cc1 | active
O=C(CCl)N(Cc1ccccc1)c1ccccc1 | inactive
O=C(CCl)Nc1ccc(Oc2ccccc2)cc1 | active
CCOc1ccc(NC(=O)CCl)c(Oc2ccccc2)c1 | inactive

Exam item: Which outcome was assigned to O=C(CCl)N(c1ccccc1)C1CCCCC1 in this test?
Marked response: inactive

Exam item: Which outcome was assigned to Oc1cccc(Oc2ccccc2)c1 in this test?
Marked response: active

Exam item: Which outcome was assigned to O=C(CCl)Nc1ccc(-c2nc3ccccc3s2)cc1 in this test?
Marked response: active

Exam item: Which outcome was assigned to O=C(CCl)Nc1ccc(Cl)c(Cl)c1 in this test?
Marked response: active

Exam item: Which outcome was assigned to O=C(CCl)Nc1ccccc1 in this test?
Marked response: active

Exam item: Which outcome was assigned to COc1ccc(N(C)C(=O)CCl)cc1 in this test?
Marked response: active

----------
molecular target: HTH-type transcriptional regulator EthR (Mycobacterium tuberculosis); assay: Inhibition of EthR in Mycobacterium tuberculosis H37Rv-GFP infected in mouse Raw 264.7 cells assessed as boosting of 0.1 uM ethionamide-induced microbial growth inhibition at 10 uM by automated fluorescent confocal microscopy; type: cell-based
Assign growth inhibition (GI) to each entry below.
Give bare numbers, in %.

O=C(COc1ccc(Cl)cc1)Nc1ccc(Cl)c(Cl)c1 | -17.9
N#Cc1cccc(NC(=O)COc2cccc(Oc3ccccc3)c2)c1 | -7.2
N#Cc1cccc(OCC(=O)Nc2ccc(-c3nc4ccccc4s3)cc2)c1 | 53.4
O=C(COc1cccc(Oc2ccccc2)c1)Nc1ccccc1 | 2.2
COc1cccc(NC(=O)COc2ccc(C(F)(F)F)cc2)c1 | -1.5

Exam item: Input Cc1ccc(-n2nc3ccc(NC(=O)COc4ccccc4C)cc3n2)cc1 , output reported growth inhibition (GI).
Marked response: 10.9
